# target: T1, human C1s (human, UniProt P09871 16-688)
# T1 construct: also called hC1s; serum-derived human C1s (CompTech)
# T1 sequence: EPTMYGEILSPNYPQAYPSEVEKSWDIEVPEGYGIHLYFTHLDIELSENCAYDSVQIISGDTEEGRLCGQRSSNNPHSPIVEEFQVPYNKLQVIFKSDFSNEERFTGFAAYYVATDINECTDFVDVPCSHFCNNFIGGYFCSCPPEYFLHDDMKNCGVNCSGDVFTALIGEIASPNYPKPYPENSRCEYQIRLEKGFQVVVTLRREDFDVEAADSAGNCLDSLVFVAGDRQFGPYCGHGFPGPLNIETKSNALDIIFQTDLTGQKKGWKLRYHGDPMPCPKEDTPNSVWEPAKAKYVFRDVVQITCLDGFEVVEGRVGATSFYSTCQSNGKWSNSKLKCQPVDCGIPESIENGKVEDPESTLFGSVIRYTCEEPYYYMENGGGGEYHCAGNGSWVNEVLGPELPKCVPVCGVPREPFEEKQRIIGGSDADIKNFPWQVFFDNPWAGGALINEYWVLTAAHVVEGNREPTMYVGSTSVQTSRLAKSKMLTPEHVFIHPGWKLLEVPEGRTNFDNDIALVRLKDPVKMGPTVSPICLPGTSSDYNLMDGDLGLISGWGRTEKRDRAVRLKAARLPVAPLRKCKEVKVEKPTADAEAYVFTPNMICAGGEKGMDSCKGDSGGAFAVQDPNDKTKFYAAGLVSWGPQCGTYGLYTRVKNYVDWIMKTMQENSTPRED
# assay-overview: SPR, Ab captured; pH 5.8, 1.2 mM Ca
Answer each item with its documented koff.
Numbers only, in s⁻¹.

- binder: "C1_IPN92H0048-SG4GK/IPN93L0024-SK1 (antibody, human IgG4 S228P, kappa, name in Kabat numbering, V domains shown, also called IPN92H0048/IPN93L0024) VH: EVMLVESGGGLVKPGGSLRLSCAASGHTFSNYAMSWVRQAPGKGLEWVATISSGGSHTYYLDSVKGRFTISRDNSKDTLYLQMNSLRAEDTALYYCARLFTGHAMDYWGQGTLVTVSS VL: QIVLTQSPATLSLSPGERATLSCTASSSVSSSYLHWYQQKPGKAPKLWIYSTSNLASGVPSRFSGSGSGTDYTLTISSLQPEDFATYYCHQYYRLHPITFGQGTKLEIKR"
  koff [s⁻¹]: 0.00637
- binder: "C1_IPN92H0026-SG4GK/IPN93L0028-SK1 (antibody, human IgG4 S228P, kappa, name in Kabat numbering, V domains shown, also called IPN92H0026/IPN93L0028) VH: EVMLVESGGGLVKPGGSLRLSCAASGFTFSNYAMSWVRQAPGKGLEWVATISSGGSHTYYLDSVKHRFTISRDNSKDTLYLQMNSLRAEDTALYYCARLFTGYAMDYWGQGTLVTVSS VL: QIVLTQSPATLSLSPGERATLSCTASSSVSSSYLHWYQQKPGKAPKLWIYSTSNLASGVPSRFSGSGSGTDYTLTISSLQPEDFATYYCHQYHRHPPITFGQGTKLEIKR"
  koff [s⁻¹]: 0.0059

Moving on to another binder below.
query: Given the binder C1_IPN92H0038-SG4GK/IPN93L0023-SK1 (antibody, human IgG4 S228P, kappa, name in Kabat numbering, V domains shown, also called IPN92H0038/IPN93L0023) VH: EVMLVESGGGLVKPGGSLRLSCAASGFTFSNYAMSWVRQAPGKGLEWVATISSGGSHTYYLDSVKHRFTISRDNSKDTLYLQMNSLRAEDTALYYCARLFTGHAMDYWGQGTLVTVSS VL: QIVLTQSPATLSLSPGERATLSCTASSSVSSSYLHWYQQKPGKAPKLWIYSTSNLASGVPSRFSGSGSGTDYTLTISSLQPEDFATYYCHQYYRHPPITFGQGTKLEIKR , what is its reported koff?
result: 0.00279

Origin of values: patent US20210032365A1
